Tested on: SFV-Rluc
Conditions: primary screening of chemical libraries; compounds tested at 50 µM
Label scheme for SFV replication % left: lower than 80% is class 0, 80% and above is class 1.

{"COMPOUND": "O=C(O)c1ccccc1C(=O)O", "LABEL": "class 1"}
{"COMPOUND": "Oc1cc(O)c2c(c1)O[C@H](c1ccc(O)c(O)c1)[C@H](O)C2", "LABEL": "class 1"}
{"COMPOUND": "CN(C)CC[C@@H](c1ccc(Cl)cc1)c1ccccn1.O=C(O)/C=C\\C(=O)O", "LABEL": "class 0"}
{"COMPOUND": "CCCCC1(CC)C(=O)NC(=O)NC1=O", "LABEL": "class 0"}
{"COMPOUND": "O=C1CN(/N=C/c2ccc([N+](=O)[O-])o2)C(=O)N1", "LABEL": "class 0"}
{"COMPOUND": "Oc1cc(O)c2c(c1)O[C@H](c1ccc(O)c(O)c1)[C@H](O)[C@H]2c1c(O)cc(O)c2c1O[C@H](c1ccc(O)c(O)c1)[C@H](O)C2", "LABEL": "class 1"}
{"COMPOUND": "CCN(CC)C(C)CN1c2ccccc2Sc2ccccc21.Cl (stereo not drawn)", "LABEL": "class 0"}
{"COMPOUND": "C[C@H](CCC(=O)O)[C@H]1CC[C@H]2[C@@H]3CC[C@@H]4C[C@H](O)CC[C@]4(C)[C@H]3C[C@H](O)[C@]12C", "LABEL": "class 1"}
{"COMPOUND": "O=c1cc(-c2ccccc2)oc2ccccc12", "LABEL": "class 0"}
{"COMPOUND": "O=C(O[C@@H]1Cc2c(O)cc(O)cc2O[C@@H]1c1cc(O)c(O)c(O)c1)c1cc(O)c(O)c(O)c1", "LABEL": "class 1"}
{"COMPOUND": "CC(C)(C)NC[C@H](O)COc1cccc2c1CCCC2=O", "LABEL": "class 0"}
{"COMPOUND": "O=C(O[C@@H]1Cc2c(O)cc(O)cc2O[C@@H]1c1ccc(O)c(O)c1)c1cc(O)c(O)c(O)c1", "LABEL": "class 1"}
{"COMPOUND": "CC(N)C(O)c1ccc(O)c(O)c1.Cl (stereo not drawn)", "LABEL": "class 1"}
{"COMPOUND": "COc1cc(C(=O)O)cc(OC)c1O", "LABEL": "class 0"}
{"COMPOUND": "O=c1c(-c2ccc(O)cc2)coc2cc(O)ccc12", "LABEL": "class 0"}
{"COMPOUND": "C=CCOc1ccccc1OCC(O)CNC(C)C.Cl (stereo not drawn)", "LABEL": "class 1"}
{"COMPOUND": "O=C(O)c1cc(O)c(O)c(O)c1", "LABEL": "class 1"}
{"COMPOUND": "Oc1c(I)cc(Cl)c2cccnc12", "LABEL": "class 0"}
{"COMPOUND": "CCCCOC(=O)c1ccc(N)cc1", "LABEL": "class 0"}
{"COMPOUND": "CN(C)CC[C@@H](c1ccc(Br)cc1)c1ccccn1.O=C(O)/C=C\\C(=O)O", "LABEL": "class 0"}

* * *

Test system: SFV-Rluc
MEASUREMENT_KIND: SFV replication % left (surviving fraction, remaining percentage of SFV replication)

{"MOLECULE": "O=C(O)c1cccc(O)c1O [2,3-Dihydroxybenzoic acid]", "SYSTEM_UNDER_TEST": "SFV-Rluc", "ASSAY_VALUE": "93.1%"}
{"MOLECULE": "COc1ccc(NS(=O)(=O)c2ccc(N)cc2)nn1", "SYSTEM_UNDER_TEST": "SFV-Rluc", "ASSAY_VALUE": "110.0%"}
{"MOLECULE": "Oc1cc(O)c2c(c1)O[C@H](c1ccc(O)c(O)c1)[C@H](O)[C@H]2c1c(O)cc(O)c2c1O[C@H](c1ccc(O)c(O)c1)[C@H](O)C2", "SYSTEM_UNDER_TEST": "SFV-Rluc", "ASSAY_VALUE": "93.7%"}
{"MOLECULE": "O=c1c(-c2ccc(O)cc2)coc2cc(O)ccc12", "SYSTEM_UNDER_TEST": "SFV-Rluc", "ASSAY_VALUE": "76.6%"}

* * *

Overview of recorded SFV yield for various compounds
Tested on: SFV
Test: Viral yield analysis using a plaque assay
Format: cell-based, Semliki Forest virus (SFV)
Details: BHK cells, MOI 0.01, 50 µM compound, 16 h; untreated control 1.4×10^9 PFU/ml
MEASUREMENT_KIND: SFV yield

{"COMPOUND": "O=c1cnn([C@@H]2O[C@H](CO)[C@@H](O)[C@H]2O)c(=O)[nH]1", "ASSAY_VALUE": "9.1×10^7 PFU/ml"}
{"COMPOUND": "O=c1cc(-c2ccc(O)cc2)oc2cc(O)cc(O)c12", "ASSAY_VALUE": "6.7×10^7 PFU/ml"}
{"COMPOUND": "O=C1C[C@@H](c2ccc(O)cc2)Oc2cc(O)cc(O)c21", "ASSAY_VALUE": "8.2×10^7 PFU/ml"}
{"COMPOUND": "CSc1ccc2c(c1)N(CCC1CCCCN1C)c1ccccc1S2 (stereo not shown) [Thioridazine, reference compound]", "ASSAY_VALUE": "6.8×10^8 PFU/ml"}
{"COMPOUND": "CN(C)CCC=C1c2ccccc2COc2ccccc21 [Doxepin]", "ASSAY_VALUE": "3.6×10^8 PFU/ml"}
{"COMPOUND": "CCN(CC)C(C)CN1c2ccccc2Sc2ccccc21 (stereo not shown)", "ASSAY_VALUE": "8.1×10^8 PFU/ml"}
{"COMPOUND": "Oc1cccc(O)c1O", "ASSAY_VALUE": "1.1×10^9 PFU/ml"}

* * *

Tested on: SFV-Rluc
Conditions: primary screening of chemical libraries; compounds tested at 50 µM
Measured SFV replication % left values are reported for all entries that follow.
MEASUREMENT_KIND: SFV replication % left (%)

{"MOLECULE": "CC(=O)Oc1c(C)cc(OCC(O)CNC(C)C)c(C)c1C (stereo not shown)", "MEASUREMENT_KIND": "SFV replication % left", "MEASURE_UNIT": "%", "ASSAY_VALUE": 46.2}
{"MOLECULE": "CCC(C)NCC(O)c1ccc2c(c1)CCCC2 (stereo not shown)", "MEASUREMENT_KIND": "SFV replication % left", "MEASURE_UNIT": "%", "ASSAY_VALUE": 73.1}
{"MOLECULE": "COc1cc(-c2[o+]c3cc(O)cc(O[C@@H]4O[C@H](CO)[C@@H](O)[C@H](O)[C@H]4O)c3cc2O[C@@H]2O[C@H](CO)[C@@H](O)[C@H](O)[C@H]2O)cc(OC)c1O.[Cl-]", "MEASUREMENT_KIND": "SFV replication % left", "MEASURE_UNIT": "%", "ASSAY_VALUE": 15.4}
{"MOLECULE": "O=C(OC[C@H]1OC(O)[C@@](O)(COC(=O)c2cc(O)c(O)c(O)c2)[C@@H]1O)c1cc(O)c(O)c(O)c1 (stereo partly shown)", "MEASUREMENT_KIND": "SFV replication % left", "MEASURE_UNIT": "%", "ASSAY_VALUE": 14.7}
{"MOLECULE": "C=CC[C@]1(O)CC[C@H]2[C@@H]3CCC4=CCCC[C@@H]4[C@H]3CC[C@@]21C", "MEASUREMENT_KIND": "SFV replication % left", "MEASURE_UNIT": "%", "ASSAY_VALUE": 37.2}
{"MOLECULE": "CCCCNc1ccc(C(=O)OCCN(C)C)cc1.Cl [PC-032]", "MEASUREMENT_KIND": "SFV replication % left", "MEASURE_UNIT": "%", "ASSAY_VALUE": 45.4}
{"MOLECULE": "CNC(C)C(O)c1ccc(O)cc1 (stereo not shown)", "MEASUREMENT_KIND": "SFV replication % left", "MEASURE_UNIT": "%", "ASSAY_VALUE": 94.4}

* * *

Test system: SFV-Rluc
Structures can show the parent of a compound that is named as a salt.
Lab note: class by SFV replication % left (surviving fraction, remaining percentage of SFV replication), see A = under 50%, B = from 50% up to 70%, C = 70% and over

{"MOLECULE": "O=c1cc(C(F)(F)F)c2cc3c4c(c2o1)CCCN4CCC3", "SYSTEM_UNDER_TEST": "SFV-Rluc", "LABEL": "B"}
{"MOLECULE": "COc1c2occc2c(OC)c2c(=O)cc(C)oc12", "SYSTEM_UNDER_TEST": "SFV-Rluc", "LABEL": "C"}
{"MOLECULE": "CC(C)NCC(O)c1ccc2ccccc2c1 (stereo not drawn)", "SYSTEM_UNDER_TEST": "SFV-Rluc", "LABEL": "B"}
{"MOLECULE": "COC(=O)c1cc(O)c(O)c(O)c1 [Methyl gallate]", "SYSTEM_UNDER_TEST": "SFV-Rluc", "LABEL": "B"}
{"MOLECULE": "CC(C)(C)NCC(O)COc1cccc2c1CCC(=O)N2 (stereo not drawn) [Carteolol hydrochloride]", "SYSTEM_UNDER_TEST": "SFV-Rluc", "LABEL": "B"}
{"MOLECULE": "O=C(O)c1ccc(O)c(O)c1 [Protocatechuic acid]", "SYSTEM_UNDER_TEST": "SFV-Rluc", "LABEL": "A"}
{"MOLECULE": "COc1cc(C2Oc3cc([C@H]4Oc5cc(O)cc(O)c5C(=O)[C@@H]4O)ccc3OC2CO)ccc1O (stereo partly drawn)", "SYSTEM_UNDER_TEST": "SFV-Rluc", "LABEL": "A"}
{"MOLECULE": "CN1CCCCC1CCN1c2ccccc2Sc2ccc([S+](C)[O-])cc21 (stereo not drawn) [Mesoridazine besylate]", "SYSTEM_UNDER_TEST": "SFV-Rluc", "LABEL": "C"}
